- method_notes: logP determination via retention times, calibrated with unbranched alkan-2-ones
- Format: physicochemical
- condition_summary: HPLC on reversed-phase C 18, EEC Directive 79/831 Annex V.A8; method *: 40° C., 0.1% aqueous formic acid and acetonitrile, linear gradient 10% to 95% acetonitrile
Marks after values point to notes of the source that are not given here.
# logP per entry

[[record]]
compound = "CCOC(=O)Nc1cccc(Nc2ncc(Cl)c(NCC3CC3)n2)c1"
measure = "logP"
readout_value = "1.9*"

[[record]]
compound = "Oc1ccc(Nc2ncc(Cl)c(NCC3CC3)n2)cc1F"
measure = "logP"
readout_value = "1.49*"

[[record]]
compound = "COC(=O)Nc1ccc(Nc2ncc(Cl)c(NC3CC3)n2)c(F)c1"
measure = "logP"
readout_value = "1.56*"

[[record]]
compound = "CCOC(=O)c1cccc(Nc2ncc(Br)c(NCC3CC3)n2)c1"
measure = "logP"
readout_value = "2.51*"

[[record]]
compound = "CN(C=O)c1ccc(Nc2ncc(Br)c(NCC3CC3)n2)cc1"
measure = "logP"
readout_value = "1.63*"


Noted for CCOC(=O)Nc1ccc(Nc2ncc(Cl)c(NCC3CC3)n2)cc1 : its logP reads 1.8*

Noted for CC(C)(C)OC(=O)Nc1ccc(Nc2ncc(Cl)c(NCC3CC3)n2)cc1 : its logP reads 2.18*

* * *

# logP per entry
- method_notes: logP determination via retention times, calibrated with unbranched alkan-2-ones
- Type: physicochemical
- condition_summary: HPLC on reversed-phase C18 column (EEC Directive 79/831 Annex V.A8); method *: 40° C.; 0.1% aqueous formic acid and acetonitrile; linear gradient 10% to 95% acetonitrile
Marks after values point to notes of the source that are not given here.

[[record]]
compound = "O=S1(=O)Cc2ccc(Nc3ncc(Cl)c(NC4CC4)n3)cc2C1"
measure = "logP"
readout_value = "1.51*"

[[record]]
compound = "COCC(C)Oc1ccc(Nc2ncc(Cl)c(NC3CC3)n2)cc1 (stereo not shown)"
measure = "logP"
readout_value = "1.73*"

[[record]]
compound = "COc1cc(Nc2ncc(Cl)c(NC3CC3)n2)ccc1F"
measure = "logP"
readout_value = "1.9*"

[[record]]
compound = "CC1COC(=O)N1c1cccc(Nc2ncc(Cl)c(NC3CC3)n2)c1 (stereo not shown)"
measure = "logP"
readout_value = "1.57*"

[[record]]
compound = "O=S(=O)(c1cccc(Nc2ncc(Cl)c(NC3CC3)n2)c1)N1CCCCC1"
measure = "logP"
readout_value = "2.8*"

[[record]]
compound = "CC(C)(C)C(=O)Cc1ccc(Nc2ncc(C(F)(F)F)c(NCC3CC3)n2)cc1"
measure = "logP"
readout_value = "3.41*"


We next turn to a different compound, shown below.
Noted for CC(C)Oc1cccc(Nc2ncc(Cl)c(NC3CC3)n2)c1 : its logP reads 2.45*

* * *

- method_notes: logP determination via retention times, calibrated with unbranched alkan-2-ones
- Assay type: physicochemical
- condition_summary: HPLC on reversed-phase C18, method *: 40° C.; mobile phase 0.1% aqueous formic acid and acetonitrile; linear gradient 10% to 95% acetonitrile
Marks after values point to notes of the source that are not given here.
# logP per entry

Noted for Nc1ccc(Nc2ncc(Cl)c(NC3CC3)n2)cc1 [compound 272] : its logP reads 0.45*;

Noted for CCCNS(=O)(=O)Cc1cccc(Nc2ncc(Cl)c(NC3CC3)n2)c1 [compound 335] : its logP reads 1.81*

Noted for N#Cc1cccc(Nc2ncc(Cl)c(NC3CC3)n2)c1 [compound 278] : its logP reads 2.13*

Data origin, for the record: patent US20100081679A1
